assay: NCI Yeast Anticancer Drug Screen. Data for the sgs1 mgt1 strain (AID 161); settings: S. cerevisiae sgs1 mgt1 strain, at 50.0 µM (retest, dose inferred, filed as 5.0), hits give high values
Compounds without any hit were thinned out: in the full panel of roughly 79,000, 15% have a hit.
Label Satisfied for high-side growth inhibition (at or above 80%) and Not satisfied for low-side growth inhibition (below it).

Inquiry: Is growth inhibition at least 80%? Consider "N#CC(C#N)C(c1ccccc1)c1ccccc1"
Reply text: Not satisfied

Inquiry: Could you do the same for "COc1cc(OC)c(OC)cc1/C=C\c1nccc2ccccc12" , please?
Reply text: Not satisfied

Inquiry: Could you do the same for "C/C(=N\NC(=S)N1CCC(C)CC1)c1ncccn1" , please?
Reply text: Satisfied

Inquiry: Could you do the same for "COc1ccc2ccc(/C=C/[N+](=O)[O-])cc2c1OC" , please?
Reply text: Satisfied

Inquiry: Could you do the same for CC(=O)N1C(c2[nH]c3ccccc3c2Cc2ccccc2)CCN1c1ccccc1 (stereo unspecified) , please?
Reply text: Satisfied

Inquiry: Could you do the same for "C/C(=N/NC(=S)Nc1ccc([N+](=O)[O-])cc1)c1cccc(/C(C)=N\NC(=S)Nc2ccc([N+](=O)[O-])cc2)n1" , please?
Reply text: Satisfied

Inquiry: Could you do the same for "O=C(N/C(=C\c1ccc(Cl)cc1)c1nc2ccccc2s1)c1ccccc1" , please?
Reply text: Satisfied

Inquiry: Could you do the same for "Cc1cc(NC(=S)SCc2ccc3c(c2)OCO3)ccc1Cl" , please?
Reply text: Satisfied

Inquiry: Could you do the same for "CC1(C)[C@H]2CC[C@]1(C)[C@H](OC(=O)NNC(=O)O[C@@H]1C[C@@H]3CC[C@@]1(C)C3(C)C)C2" , please?
Reply text: Not satisfied

Inquiry: Could you do the same for Cc1ccc(/C=C2\CCCC(CN(C)C)C2=O)cc1 (stereo unspecified) , please?
Reply text: Satisfied
